- System: HCV replicon cells
- measurement_description: Cell-based HCV replicon assay (replicon RNA level by real time PCR, Taqman)
- run_parameters: Hepatitis C virus, 72 h, HCV replicon cells, harvested on day 3, replicon RNA by real time PCR; calculated EC90 reported as range class; read-out: EC90 (μM) range
measured_property: EC90

>>> value_observed("CO[C@H](C)CNc1nc(C)c(-c2nc3ccccc3s2)c(N[C@@H]2C[C@H](CO)[C@@H](O)[C@H]2O)n1")
"< 0.5 µM"
>>> value_observed("CCCCCNc1nc(Cl)c(-c2cc3cc(C)ncc3o2)c(N[C@@H]2C[C@H](CO)[C@@H](O)[C@H]2O)n1")
"< 0.5 µM"
>>> value_observed("CCCCCNc1nc(C)c(-c2cc3cc(C)nc(C)c3o2)c(N[C@@H]2C[C@H](CO)[C@@H](O)[C@H]2O)n1")
"< 0.5 µM"
>>> value_observed("Cc1nc(CNc2nc(C)c(-c3nc4ccccc4s3)c(N[C@@H]3C[C@H](CO)[C@H]4OC(C)(C)O[C@H]43)n2)cs1")
"> 5 µM"
>>> value_observed("OC[C@H]1C[C@@H](Nc2nc(NCC(F)(F)F)nc(C3CC3)c2-c2nc3ccccc3s2)[C@H](O)[C@@H]1O")
"> 5 µM"
>>> value_observed("CCCCCNc1nc(C)c(-c2nc3ccccc3s2)c(N[C@@H]2CC[C@@H](O)[C@H]2O)n1")
"< 0.5 µM"

Note: attention shifts to another entry.
Q: Please tell me: EC90 of `OC[C@H]1C[C@@H](Nc2nc(NCC3CCCCC3)nc(Cl)c2-c2nc3ccccc3s2)[C@H](O)[C@@H]1O` , system HCV replicon cells?
Ans: < 0.5 µM

---

- Test system: HCV replicon cells
- measurement_description: Cell-based HCV replicon assay (replicon RNA level by real time PCR, Taqman)
- run_parameters: Hepatitis C virus, 72 h, HCV replicon cells, harvested day 3, replicon RNA by real time PCR; reported as range class; read-out: EC90 (μM) range
measured_property: EC90

These solved cases illustrate the format of a correct answer.
>>> value_observed("COCCCNc1nc(C)c(-c2nc3ccccc3s2)c(N[C@@H]2C[C@H](CO)[C@@H](O)[C@H]2O)n1")
"< 0.5 µM"
>>> value_observed("COc1ccc2nc(-c3c(Cl)nc(N)nc3N[C@@H]3C[C@H](CO)[C@@H](O)[C@H]3O)sc2c1")
"< 0.5 µM"

Note: attention shifts to another entry.
Q: What value of measured EC90 is listed for `Cc1nc(NCCCC(F)(F)F)nc(N[C@@H]2C[C@H](CO)[C@@H](O)[C@H]2O)c1-c1nc2ccccc2s1` ?
Ans: < 0.5 µM

---

- Test system: HCV replicon cells
- measurement_description: Cell-based HCV replicon assay (replicon RNA level by real time PCR, Taqman)
- run_parameters: Hepatitis C virus, 72 h, HCV replicon cells, replicon RNA level by real time PCR, harvested day 3; read-out: EC90 (μM) range
measured_property: EC90

These solved cases illustrate the format of a correct answer.
>>> value_observed("Cc1nc(NCC(F)(F)F)nc(N[C@@H]2C[C@H](C)[C@@H](O)[C@H]2O)c1-c1nc2ccccc2s1")
"< 0.5 µM"
>>> value_observed("Cc1ccccc1[C@@H](C)Nc1nc(C)c(-c2nc3c(C)nccc3s2)c(N[C@@H]2C[C@H](CO)[C@@H](O)[C@H]2O)n1")
"< 0.5 µM"
>>> value_observed("CCN(C[C@H]1C[C@@H](Nc2nc(NCC(F)(F)F)nc(C)c2-c2nc3ccccc3s2)[C@H](O)[C@@H]1O)C(=O)OC")
"< 0.5 µM"
>>> value_observed("Cc1nc(NCc2c(F)cccc2F)nc(N[C@@H]2C[C@H](CO)[C@@H](O)[C@H]2O)c1-c1nc2cnccc2s1")
"< 0.5 µM"
>>> value_observed("Cc1nc(N[C@H](C)C2CC2)nc(N[C@@H]2C[C@H](CO)[C@@H](O)[C@H]2O)c1-c1nc2c(CC(C)C)nccc2s1")
"< 0.5 µM"
>>> value_observed("Cc1nc(N[C@@H](c2ccccc2)C(F)(F)F)nc(N[C@@H]2C[C@H](CO)[C@@H](O)[C@H]2O)c1-c1nc2c(C)nccc2s1")
"< 0.5 µM"
>>> value_observed("Cc1nc(NCC(F)(F)F)nc(N[C@@H]2C[C@H](CO)[C@@H](O)[C@H]2O)c1-c1nc2ccccc2o1")
"< 0.5 µM"
>>> value_observed("Cc1nc(NCC(F)(F)F)nc(N[C@@H]2C[C@H](CN(CC3CC3)S(C)(=O)=O)[C@@H](O)[C@H]2O)c1-c1nc2ccccc2s1")
"< 0.5 µM"

Q: What value of measured EC90 is listed for Cc1nc(N[C@H](C)c2ccc(OC(F)(F)F)cc2)nc(N[C@@H]2C[C@H](C(C)O)[C@@H](O)[C@H]2O)c1-c1nc2c(C)nccc2s1 (stereo partly drawn) ?
Ans: < 0.5 µM

Q: Query `Cc1nc(NCC2CC2)nc(N)c1-c1nc2cnccc2s1` next
Ans: 0.5 to 5 µM
